# measuredOn: His-tagged SepFc (N-terminal truncated version of SepF, amino acids 115-203) (M. tuberculosis H37Rv, UniProt P9WGJ5 92-180)
# Sequence (P9WGJ5 92-180): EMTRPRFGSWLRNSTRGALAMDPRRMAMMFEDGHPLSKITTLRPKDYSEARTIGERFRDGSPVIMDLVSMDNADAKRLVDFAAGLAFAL
# assayText: fluorescence polarisation
The star is where a group is joined. FITC = O=C1OC2(c3ccc(O)cc3Oc3cc(O)ccc32)c2ccc(NC(=S)*)cc21
measure: Kd (nM)
Number in nM, nothing else.

Query: Respond only with Kd recorded for {FITC}-SIGGDDDDVDVPPFMRR-OH [FITC-FtsZ (FITC-SIGGDDDDVDVPPFMRR-OH, 363-379 amino acids of the full-length FtsZ)]
Response: 18.6
